IC50 overview
- assayedSystem: WEE1 (Homo sapiens, UniProt P30291)
- Construct: purchased Thermo Fisher PR7373A
- Sequence (P30291 whole entry): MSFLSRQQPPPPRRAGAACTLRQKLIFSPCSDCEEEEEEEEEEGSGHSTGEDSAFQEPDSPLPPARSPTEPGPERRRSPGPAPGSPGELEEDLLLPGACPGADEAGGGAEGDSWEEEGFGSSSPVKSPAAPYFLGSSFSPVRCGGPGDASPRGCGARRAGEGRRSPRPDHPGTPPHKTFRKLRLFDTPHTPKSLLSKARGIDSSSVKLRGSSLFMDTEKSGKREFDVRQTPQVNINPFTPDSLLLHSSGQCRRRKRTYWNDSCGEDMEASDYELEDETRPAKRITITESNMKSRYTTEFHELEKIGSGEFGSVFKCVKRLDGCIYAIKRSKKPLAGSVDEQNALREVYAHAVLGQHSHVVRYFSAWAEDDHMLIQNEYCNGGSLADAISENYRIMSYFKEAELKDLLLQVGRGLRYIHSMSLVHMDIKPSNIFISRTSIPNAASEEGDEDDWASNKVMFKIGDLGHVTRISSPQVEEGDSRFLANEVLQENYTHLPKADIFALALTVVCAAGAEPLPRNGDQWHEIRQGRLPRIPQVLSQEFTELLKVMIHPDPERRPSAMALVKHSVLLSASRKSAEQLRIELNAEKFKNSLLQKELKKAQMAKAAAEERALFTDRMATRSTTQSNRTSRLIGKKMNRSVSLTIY
- protocolNotes: Selectivity versus WEE1 assay (ADP-Glo enzymatic assay)
- Assay type: biochemical
- testConditions: ADP-Glo; 15 nM WEE1, 60 minutes at 26° C.; banded

Below: 2 compounds and their reported IC50.
Cc1ccc(O)c(C)c1NC(=O)c1cnc(Nc2nc(C)c(C)s2)s1
> 11 µM
Cn1ccc(Nc2ncc(C(=O)Nc3c(F)ccc(O)c3F)s2)n1
> 11 µM

Could you now consider this next compound?
Requested read-out IC50, target or system WEE1 (Homo sapiens, UniProt P30291), entry `Cc1ccc(O)c(C)c1NC(=O)c1cnc(Nc2ccn([C@@H]3CCN(C(=O)Cc4ccccc4)C3)n2)s1` > 11 µM

====

- assayedSystem: Human PKMYT1 (Homo sapiens, UniProt Q99640)
- Construct: Human PKMYT1 75-362 was cloned as a TEV cleavable 6xHis fusion; 6xHis (TEV cleavable) (cleaved yes); made in house; host or cells: bacterial cells
- Sequence (Q99640 75-362): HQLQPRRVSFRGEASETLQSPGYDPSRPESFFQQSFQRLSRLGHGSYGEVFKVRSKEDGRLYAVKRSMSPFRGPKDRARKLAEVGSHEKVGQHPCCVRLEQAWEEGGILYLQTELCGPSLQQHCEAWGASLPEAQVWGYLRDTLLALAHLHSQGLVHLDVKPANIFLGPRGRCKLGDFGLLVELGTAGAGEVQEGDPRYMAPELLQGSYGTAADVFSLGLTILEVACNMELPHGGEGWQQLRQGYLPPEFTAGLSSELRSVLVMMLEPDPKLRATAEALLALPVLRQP
- protocolNotes: PKMYT1 biochemical ADP-Glo enzymatic assay
- testConditions: PKMYT1 kinase domain 15 nM; ADP-Glo; banded values
pIC50: −log10 of the molar value.
pIC50 overview

CCc1c(O)ccc(C)c1NC(=O)c1cnc(Nc2ccn(CC(=O)N3CCCC3)n2)s1
> 7.30
Cc1cn(-c2ccn(C)n2)nc1Nc1ncc(C(=O)Nc2c(C)ccc(O)c2C)s1
> 7.30

Field request: pIC50 | item: `COc1ccc(F)c(Nc2ncc(C(=O)Nc3c(C)ccc(O)c3C)s2)n1` > 7.30

Moving on to `Cc1ccc(O)c(C)c1NC(=O)c1cnc(Nc2ncc(C(F)(F)F)o2)s1` 4.96 to 6.00

Moving on to `Cc1cn(CC(=O)N2CCCC2(C)C)nc1Nc1ncc(C(=O)Nc2c(C)ccc(O)c2C)s1` > 7.30

====

- assayedSystem: WEE1 (Homo sapiens)
- Construct: purchased Thermo Fisher PR7373A
- protocolNotes: Selectivity versus WEE1 assay (ADP-Glo enzymatic assay)
- Assay type: biochemical
- testConditions: fold difference in selectivity for PKMYT1 over WEE1; banded; ">N" = at least in this band but could be higher
metricName: PKMYT1 vs. WEE1 selectivity

Cc1ccc(O)c(C)c1NC(=O)c1cnc(Nc2nn(C)c3ccccc23)s1 [BAA-126]
X (100-<1000 fold)
Cc1cn(-c2cncn2C)nc1Nc1ncc(C(=O)Nc2c(C)ccc(O)c2C)s1 [BAA-387]
X (100-<1000 fold)
Cc1cc(Nc2ncc(C(=O)Nc3c(C)ccc(O)c3C)s2)n(CCC(N)=O)n1 [BAA-240]
X (100-<1000 fold)

====

- System: OVCAR 3 cells
- protocolNotes: Cancer cell line proliferation assay, ATP-based cell viability (Cell Titre Glow), OVCAR 3 (CCNE1-amplified)
- testConditions: KYSE30 (normal CCNE1) GI50 vs. OVCAR 3 (CCNE1-amplified) GI50
- Experimental: Cancer cell lines with either normal (KYSE-30) or amplified CCNE1 expression (OVCAR 3 —ovarian cancer) were evaluated for their sensitivity to PKMYT1 inhibitors using Cell Titre Glow assay (Promega G7573) as endpoint to assess cell proliferation. The luminescence signal was read on a PHERAStar FS microplate reader (BMG Labtech). […]
metricName: Selectivity ratio KYSE30 Gl50 vs. OVCAR3 Gl50

Below: 5 molecules and their reported Selectivity ratio KYSE30 Gl50 vs. OVCAR3 Gl50.
Cc1cn(-c2scnc2C)nc1Nc1ncc(C(=O)Nc2c(C)ccc(O)c2C)s1
Y (>20 fold)
Cc1c(O)cc(Br)c(C)c1NC(=O)c1cnc(Nc2nn(C3CCS(=O)(=O)C3)c(C)c2Br)s1 (stereo not shown)
Y (>20 fold)
Cc1ccc(NS(=O)(=O)C(C)(C)C)nc1Nc1ncc(C(=O)Nc2c(C)ccc(O)c2C)s1.Cl
Y (>20 fold)
CCCN(C)C(=O)Cn1cc(C)c(Nc2ncc(C(=O)Nc3c(C)ccc(O)c3C)s2)n1
Y (>20 fold)
CCOc1ccc(Nc2ncc(C(=O)Nc3c(C)ccc(O)c3C)s2)nc1C
Y (>20 fold)

Field request: Selectivity ratio KYSE30 Gl50 vs. OVCAR3 Gl50 | item: Cc1ccc(N[S+]([O-])C(C)(C)C)nc1Nc1ncc(C(=O)Nc2c(C)ccc(O)c2C)s1 (stereo not shown) Y (>20 fold)

Moving on to `Cc1ccc(O)c(C)c1NC(=O)c1cnc(Nc2nn(-c3ccccn3)cc2Cl)s1` X (3-20 fold)

Moving on to `Cc1ccc(NC(=O)NC(C)(C)C)nc1Nc1ncc(C(=O)Nc2c(C)ccc(O)c2C)s1.Cl` Y (>20 fold)

Moving on to `Cc1cn(C)nc1Nc1ncc(C(=O)Nc2c(C)ccc(O)c2C)s1` Y (>20 fold)

Moving on to `COc1cc(-c2cccc(Nc3ncc(C(=O)Nc4c(C)ccc(O)c4C)s3)n2)cc(OC)c1OC` Y (>20 fold)

Moving on to `CCc1cn(CCF)nc1Nc1ncc(C(=O)Nc2c(C)ccc(O)c2C)s1` Y (>20 fold)

Moving on to `Cc1ccc(O)c(C)c1NC(=O)c1cnc(Nc2cc(C)n(C(C)C)n2)s1` Y (>20 fold)

Moving on to `Cc1cccc(Nc2ncc(C(=O)Nc3c(C)ccc(O)c3C)s2)n1` Y (>20 fold)

Moving on to `Cc1ccc(O)c(C)c1NC(=O)c1cnc(Nc2nn(CC#N)cc2Br)s1` X (3-20 fold)

Moving on to `Cc1cn(CC(=O)N2CCCC2)nc1Nc1ncc(C(=O)Nc2c(C)ccc(O)c2C)s1` Y (>20 fold)

Moving on to `Cc1ccc(NC(=O)C(C)(C)O)nc1Nc1ncc(C(=O)Nc2c(C)ccc(O)c2C)s1.Cl` Y (>20 fold)

Moving on to `Cc1ccc(O)c(C)c1NC(=O)c1cnc(Nc2ccc3ncccc3n2)s1` Y (>20 fold)

Moving on to `Cc1cn(C2COC2)nc1Nc1ncc(C(=O)Nc2c(C)ccc(O)c2C)s1` Y (>20 fold)
